Tested on: NCI-H460
Test: NCI tumour cell line growth inhibition, 48 h
Active and inactive are the calls of the source. Cut-off read from the data, not from the text of the source: active = GI50 up to about 1.1 µM and inactive = higher.
Please reply with one of these outcomes: active, inactive

Example entries begin here.
compound: O=c1c(Sc2c(O)c3ccccc3c3ccccc3c2=O)c(O)c2ccccc2c2ccccc12
discreteLabel: inactive
--
compound: COc1cc(=O)n2c3ccccc3n(C)c2c1C#N
discreteLabel: inactive
--
compound: COC12OC3(C4OC41)C(C(=O)O[C@H]3CO[Si](C)(C)C(C)(C)C)C2S(=O)(=O)c1ccccc1 (stereo partly specified)
discreteLabel: inactive
--
compound: CO[C@H]1C=C[C@]23c4cc5c(cc4CN(CC2O)[C@@H]3C1)OCO5 (stereo partly specified)
discreteLabel: inactive
--
compound: Cc1ccc(NC(=O)NC(=O)c2ccc([N+](=O)[O-])cc2[N+](=O)[O-])cc1Oc1ncc(Cl)cn1
discreteLabel: active

Query: recorded result category for C/C(=N\O)c1cccc[n+]1Cc1ccccc1 in this test
inactive

Query: recorded result category for CC(C)NC1CCCCC2c3ccccc3C12O (stereo unspecified) in this test
inactive

Query: recorded result category for CC(C)(C)OC(=O)N/N=C(/N)c1ccccc1 in this test
inactive

Query: recorded result category for O=C(NC1CCN(Cc2ccccc2)CC1)c1ccc(I)cc1 in this test
inactive

Query: recorded result category for CN(C)CCCn1c(Cc2ccc(Cl)cc2)nc2cc(C(F)(F)F)ccc21 in this test
inactive

Query: recorded result category for C(=C\N1CCCCC1)/c1nnnn1-c1ccccc1 in this test
inactive
